IC50 reference
- target_system: human CD73 (Homo sapiens)
- assay_method_text: Inhibitor activity against CD73 in cell based assay (CD73 expressing CHO-K1 cells)
- setup_conditions: CHO-K1 cells expressing human CD73, 150 μM AMP, 4 hours of incubation; read-out: CHO-K1 CELL VARIANT: CD73 IC50

Examples from the recorded data:
O=C(NC1CCCC12CC2)O[C@@H]1CCN(c2cn[nH]c(=O)c2Cl)C1 (stereo partly shown) [P-0426]; 0.001 to 10 µM
O=C(Nc1ccc(Cl)cc1)O[C@@H]1CCN(c2cn[nH]c(=O)c2Cl)C1 [P-0094]; 10 to 100 µM
N#CC1(NC(=O)OC2CCCCC2)CCN(c2cn[nH]c(=O)c2Cl)C1 (stereo not shown) [P-0074]; 10 to 100 µM
O=C(N[C@H]1CC[C@H](NC(=O)c2ccncc2)CC1)O[C@@H]1CCN(c2cn[nH]c(=O)c2Cl)C1 [P-0264]; 0.001 to 10 µM
CCOC(=O)NCC(=O)N1CCC(NC(=O)O[C@@H]2CCN(c3cn[nH]c(=O)c3Cl)C2)CC1 [P-0162]; 0.001 to 10 µM

Problem: Would you kindly share the measured IC50 for CNC(=O)N[C@H]1CC[C@H](NC(=O)O[C@@H]2CCN(c3cn[nH]c(=O)c3Cl)C2)CC1 [P-0319] ?
Result: 0.001 to 10 µM

Problem: Would you kindly share the measured IC50 for N#Cc1c(N2CC[C@@H](OC(=O)NC3CCN(C4CCCC4)CC3)C2)cn[nH]c1=O [P-0151] ?
Result: 0.001 to 10 µM

Problem: Would you kindly share the measured IC50 for O=C(NC1CC2CCC1O2)O[C@@H]1CCN(c2cn[nH]c(=O)c2Cl)C1 (stereo partly shown) [P-0117] ?
Result: 0.001 to 10 µM

Problem: Would you kindly share the measured IC50 for Cn1ncc(N2CC[C@@H](OC(=O)NC3CCCC3)C2)c(Cl)c1=O [P-0155] ?
Result: 0.001 to 10 µM

====

- target_system: human CD73 (Homo sapiens, UniProt P21589)
- Sequence (P21589 27-549): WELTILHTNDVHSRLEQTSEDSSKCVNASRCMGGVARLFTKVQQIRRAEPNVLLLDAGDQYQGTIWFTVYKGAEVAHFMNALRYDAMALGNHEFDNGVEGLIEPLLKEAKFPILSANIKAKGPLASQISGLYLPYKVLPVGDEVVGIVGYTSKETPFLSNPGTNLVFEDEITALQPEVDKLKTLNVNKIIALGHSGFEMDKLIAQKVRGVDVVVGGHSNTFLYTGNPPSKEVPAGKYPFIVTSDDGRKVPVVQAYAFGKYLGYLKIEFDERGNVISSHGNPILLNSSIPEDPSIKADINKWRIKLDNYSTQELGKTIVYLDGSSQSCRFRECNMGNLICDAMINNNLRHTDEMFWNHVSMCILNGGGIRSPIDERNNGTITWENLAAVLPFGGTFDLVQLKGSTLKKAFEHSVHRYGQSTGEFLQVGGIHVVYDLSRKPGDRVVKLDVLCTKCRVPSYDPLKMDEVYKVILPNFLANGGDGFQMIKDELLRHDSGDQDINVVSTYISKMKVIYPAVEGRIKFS
- assay_method_text: Inhibitor activity against CD73 in cell based assay (CD73 expressing CHO-K1 cells)
- setup_conditions: CHO-K1 cells expressing human CD73, 150 μM AMP, 4 hours of incubation; read-out: CHO-K1 CELL VARIANT: CD73 IC50
property_name: IC50

Cc1nc(NC(=O)O[C@@H]2CCN(c3cn[nH]c(=O)c3Cl)C2)sc1C [P-0221]; 10 to 100 µM
O=C(N[C@H]1CC[C@H](NC(=O)C2CCC2)CC1)O[C@@H]1CCN(c2cn[nH]c(=O)c2Cl)C1 [P-0258]; 0.001 to 10 µM

Problem: Would you kindly share the measured IC50 for N#CCC1(NC(=O)O[C@@H]2CCN(c3cn[nH]c(=O)c3Cl)C2)CCCC1 [P-0411] ?
Result: 0.001 to 10 µM

Problem: Would you kindly share the measured IC50 for O=C(O)Cn1ncc(N2CC[C@@H](OC(=O)NC3CCC(F)(F)CC3)C2)cc1=O [P-0283] ?
Result: 10 to 100 µM

Problem: Would you kindly share the measured IC50 for Cc1onc(C(=O)N2CCC(NC(=O)O[C@@H]3CCN(c4cn[nH]c(=O)c4Cl)C3)CC2)c1C [P-0498] ?
Result: 0.001 to 10 µM

Problem: Would you kindly share the measured IC50 for O=C(N[C@H]1CC[C@H](C(=O)O)CC1)O[C@@H]1CCN(c2cn[nH]c(=O)c2Cl)C1 [P-0190] ?
Result: 10 to 100 µM

Problem: Would you kindly share the measured IC50 for O=C(N[C@@H]1CCN(C(=O)NC2CCCCC2)C1)O[C@@H]1CCN(c2cn[nH]c(=O)c2Cl)C1 [P-0354] ?
Result: 0.001 to 10 µM

Problem: Would you kindly share the measured IC50 for O=C(N[C@@H]1CCC(F)(F)C1)O[C@@H]1CCN(c2cn[nH]c(=O)c2Cl)C1 [P-0454] ?
Result: 0.001 to 10 µM

The measured values listed here are drawn from patent US12509444B2.
